From: patent US12630498B2

Target: human Cystic Fibrosis Transmembrane Conductance Regulator (CFTR) harboring the ΔF508 mutation (Homo sapiens, UniProt P13569, DEL508-508)
Sequence (P13569 with tags, fused parts or gaps DEL508-508): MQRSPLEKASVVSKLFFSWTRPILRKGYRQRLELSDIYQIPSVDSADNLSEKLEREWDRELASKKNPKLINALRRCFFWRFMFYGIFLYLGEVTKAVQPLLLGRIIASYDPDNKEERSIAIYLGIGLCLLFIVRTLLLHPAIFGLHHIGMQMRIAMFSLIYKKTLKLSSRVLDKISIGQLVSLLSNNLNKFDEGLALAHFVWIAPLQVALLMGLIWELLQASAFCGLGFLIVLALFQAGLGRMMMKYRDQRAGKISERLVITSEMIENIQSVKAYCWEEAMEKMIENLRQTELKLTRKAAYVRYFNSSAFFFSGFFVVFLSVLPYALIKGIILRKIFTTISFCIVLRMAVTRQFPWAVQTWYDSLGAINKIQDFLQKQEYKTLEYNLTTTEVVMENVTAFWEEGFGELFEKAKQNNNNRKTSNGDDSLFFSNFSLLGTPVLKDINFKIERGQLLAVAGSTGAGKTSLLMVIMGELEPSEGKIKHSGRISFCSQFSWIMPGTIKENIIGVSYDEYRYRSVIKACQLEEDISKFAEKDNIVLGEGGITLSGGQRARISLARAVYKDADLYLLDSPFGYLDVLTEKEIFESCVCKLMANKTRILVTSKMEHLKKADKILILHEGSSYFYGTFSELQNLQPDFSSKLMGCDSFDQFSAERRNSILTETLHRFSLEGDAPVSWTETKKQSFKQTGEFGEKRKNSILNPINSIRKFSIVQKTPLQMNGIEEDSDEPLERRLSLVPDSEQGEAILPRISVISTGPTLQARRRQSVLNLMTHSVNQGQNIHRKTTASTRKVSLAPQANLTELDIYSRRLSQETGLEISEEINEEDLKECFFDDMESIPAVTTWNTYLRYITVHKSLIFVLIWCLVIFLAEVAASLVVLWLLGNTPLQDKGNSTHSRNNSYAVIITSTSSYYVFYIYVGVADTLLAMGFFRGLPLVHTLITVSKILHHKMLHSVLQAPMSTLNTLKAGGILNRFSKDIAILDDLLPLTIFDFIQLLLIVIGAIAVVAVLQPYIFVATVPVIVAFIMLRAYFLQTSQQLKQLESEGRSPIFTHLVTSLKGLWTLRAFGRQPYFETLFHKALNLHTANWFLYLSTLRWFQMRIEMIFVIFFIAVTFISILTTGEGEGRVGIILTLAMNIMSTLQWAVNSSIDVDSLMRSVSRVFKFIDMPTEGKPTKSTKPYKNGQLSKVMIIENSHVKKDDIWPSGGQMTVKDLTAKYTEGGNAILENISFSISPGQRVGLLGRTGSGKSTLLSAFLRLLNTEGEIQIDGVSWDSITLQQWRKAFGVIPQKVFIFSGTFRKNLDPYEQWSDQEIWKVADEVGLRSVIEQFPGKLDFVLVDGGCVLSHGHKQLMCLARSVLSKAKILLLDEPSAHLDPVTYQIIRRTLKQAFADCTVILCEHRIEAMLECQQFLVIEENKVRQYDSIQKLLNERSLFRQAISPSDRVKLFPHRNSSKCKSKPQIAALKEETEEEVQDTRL
Assay: H441 cell ΔF508-CFTR-HRP cell surface assay (Emax and EC50)
pEC50: −log10 of the molar value.
The entries below are paired with their reported pEC50.

# compound, pEC50
rows = [
    ("O=C(N[C@@H](Cc1ccc(C(F)(F)F)cc1)C(=O)O)c1ccc2ccccc2c1OCc1ccc(OC(F)(F)F)cc1", 5.15),
    ("O=C(NC(C(=O)O)C1(C(F)(F)F)CC1)c1ccc2ccc(F)cc2c1OCc1ccc(OC(F)(F)F)cc1 (stereo not shown)", 6.10),
    ("CC(C)(C)[C@@H](NC(=O)c1ccc2ccc(C(F)F)cc2c1OCc1ccc(OC(F)(F)F)cc1)C(=O)O", 5.74),
    ("CCC(C)(C)[C@H](NC(=O)c1ccc2ccc(C)cc2c1OCCCC(C)C)C(=O)O", 6.00),
]
